assay.system: cloned human MC4R (Homo sapiens)
Construct: made in house; host or cells: Hi5 insect cells (baculovirus infection); membrane preparation
Sequence (P32245 whole entry): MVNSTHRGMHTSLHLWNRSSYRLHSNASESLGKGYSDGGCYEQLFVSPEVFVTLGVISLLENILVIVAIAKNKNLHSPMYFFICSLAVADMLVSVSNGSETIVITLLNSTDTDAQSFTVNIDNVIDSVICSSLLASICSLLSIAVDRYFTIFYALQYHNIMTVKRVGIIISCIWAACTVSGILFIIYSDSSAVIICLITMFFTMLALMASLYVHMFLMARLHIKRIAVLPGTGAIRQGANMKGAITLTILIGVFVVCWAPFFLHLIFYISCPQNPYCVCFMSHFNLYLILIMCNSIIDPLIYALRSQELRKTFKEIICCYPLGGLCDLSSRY
assay.protocol: Membrane binding assay: competitive inhibition of [125I]NDP-α-MSH binding
cond: read-out: Displacement Rate (%) (at 10 μM)
Below, each entry is listed alongside its reported inhibition at 10 µM.

Some compounds with known inhibition at 10 µM results, for comparison:
| chemical.string | assay.system | result |
| --- | --- | --- |
| N[C@@H](Cc1ccc(OCc2ccccc2)cc1)C(=O)N1CCN(Cc2cc(O)ccc2[N+](=O)[O-])CC1 | cloned human MC4R (Homo sapiens) | 35 to 70% |
| N[C@@H](Cc1ccc(-c2cccc3c2sc2ccccc23)cc1)C(=O)N1CCN(Cc2cccc(Cl)c2Cl)CC1 | cloned human MC4R (Homo sapiens) | 91 to 100% |
| N[C@@H](Cc1ccc(OCc2ccccc2)cc1)C(=O)N1CCCN(Cc2ccc(Br)cc2)CC1 | cloned human MC4R (Homo sapiens) | 35 to 70% |

Moving on to another compound below.
Fill in the blank: the reported inhibition at 10 µM of N[C@@H](Cc1ccc(-c2cc3ccccc3s2)cc1)C(=O)N1CCN(Cc2cccc(Cl)c2Cl)CC1 is ____. 91 to 100%
